Measured target: Epidermal growth factor receptor (Homo sapiens) (UniProt P00533)
Sequence (P00533 whole entry, looked up): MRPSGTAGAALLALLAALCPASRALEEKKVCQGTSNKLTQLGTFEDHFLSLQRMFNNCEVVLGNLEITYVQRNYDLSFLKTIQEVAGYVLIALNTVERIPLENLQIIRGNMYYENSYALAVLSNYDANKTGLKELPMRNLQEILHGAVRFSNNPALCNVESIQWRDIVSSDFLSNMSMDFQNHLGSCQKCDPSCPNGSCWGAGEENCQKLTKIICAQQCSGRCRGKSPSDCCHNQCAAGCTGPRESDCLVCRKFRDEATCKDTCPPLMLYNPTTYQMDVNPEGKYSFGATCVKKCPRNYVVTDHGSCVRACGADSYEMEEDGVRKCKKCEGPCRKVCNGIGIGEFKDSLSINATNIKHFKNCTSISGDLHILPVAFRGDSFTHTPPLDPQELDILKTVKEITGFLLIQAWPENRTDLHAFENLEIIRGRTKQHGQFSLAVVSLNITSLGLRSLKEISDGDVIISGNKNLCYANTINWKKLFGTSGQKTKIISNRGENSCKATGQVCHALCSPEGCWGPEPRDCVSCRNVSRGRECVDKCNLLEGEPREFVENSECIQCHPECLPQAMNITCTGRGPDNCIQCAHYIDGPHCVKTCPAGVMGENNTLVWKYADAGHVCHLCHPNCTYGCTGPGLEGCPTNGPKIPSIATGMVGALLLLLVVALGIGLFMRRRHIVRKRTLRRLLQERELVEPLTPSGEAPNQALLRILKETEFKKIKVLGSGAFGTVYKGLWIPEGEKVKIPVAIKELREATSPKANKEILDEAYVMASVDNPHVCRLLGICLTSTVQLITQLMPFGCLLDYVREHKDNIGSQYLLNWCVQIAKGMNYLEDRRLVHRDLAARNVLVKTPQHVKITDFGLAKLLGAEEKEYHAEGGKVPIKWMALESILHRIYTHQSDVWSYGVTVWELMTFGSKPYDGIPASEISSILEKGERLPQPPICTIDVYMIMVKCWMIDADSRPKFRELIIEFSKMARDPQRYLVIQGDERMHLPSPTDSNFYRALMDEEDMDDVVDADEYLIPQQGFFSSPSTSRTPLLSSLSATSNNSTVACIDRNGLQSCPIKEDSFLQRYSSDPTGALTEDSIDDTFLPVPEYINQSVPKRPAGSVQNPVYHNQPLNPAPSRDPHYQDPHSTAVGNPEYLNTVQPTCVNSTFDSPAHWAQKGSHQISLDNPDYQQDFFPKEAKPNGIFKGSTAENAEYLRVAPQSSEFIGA
Measurement notes: EGFR binders on small-molecule microarrays, primary screen, biochemical, small-molecule microarray, 635 nm fluorescence (AID 1104);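 further: score merges 667 nm emission intensity with spot signal to noise over triplicate slides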
Conditions used: EGFR binding, higher = more signal
Here, each record is paired with measured composite z-score data.

>  <Cpd smiles>
C=C(COC)/C(=C/C[C@@H](OC(C)=O)c1cccc(OCCO)c1)c1cc(C(=O)OC)ccc1OC

>  <composite z-score>
0.214

$$$$
>  <Cpd smiles>
CO[C@H]1COC(=O)[C@H](C)NC(=O)CC=C[C@@H](C)[C@H](NS(=O)(=O)c2ccc(C)cc2)COC(=O)CC=C[C@@H]1C

>  <composite z-score>
0.778

$$$$
>  <Cpd smiles>
CC(C)CN1C(=O)[C@@]2(Cc3ccccc31)c1ccccc1C(=O)N(C1CCCCC1)[C@H]2c1ccc(CO)cc1

>  <composite z-score>
-0.894

$$$$
>  <Cpd smiles>
NC(=O)[C@H]1[C@@H]2C(=O)O[C@@H](c3ccccc3)[C@@H](c3ccccc3)N2[C@@H](c2ccc(O)cc2)[C@]12C(=O)Nc1ccc(C#CCCO)cc12

>  <composite z-score>
-1.52

$$$$
